Attribution: patent US20100285131A1

binders and their reported Efficacy (ELK-luciferase, relative to wild-type FGF21)
# study.system: β-Klotho overexpressed in recombinant human 293T kidney cells
# procedure.summary: cell-based or functional assay
experimental.readout: Efficacy (ELK-luciferase, relative to wild-type FGF21) (%)

INSERT INTO measurements (binder, value_reported) VALUES
  ('FGF21 truncation mutant 8-181 (ligand) PLLQFGGQVRQRYLYTDDAQQTEAHLEIREDGTVGGAADQSPESLLQLKALKPGVIQILGVKTSRFLCQRPDGALYGSLHFDPEACSFRELLLEDGYNVYQSEAHGLPLHLPGNKSPHRDPAPRGPARFLPLPGLPPAPPEPPGILAPQPPDVGSSDPLSMVGPSQGRSPSYAS', 24.9),
  ('FGF21 truncation mutant 1-176 (ligand) HPIPDSSPLLQFGGQVRQRYLYTDDAQQTEAHLEIREDGTVGGAADQSPESLLQLKALKPGVIQILGVKTSRFLCQRPDGALYGSLHFDPEACSFRELLLEDGYNVYQSEAHGLPLHLPGNKSPHRDPAPRGPARFLPLPGLPPAPPEPPGILAPQPPDVGSSDPLSMVGPSQGRS', 105),
  ('FGF21 truncation mutant 1-166 (ligand) HPIPDSSPLLQFGGQVRQRYLYTDDAQQTEAHLEIREDGTVGGAADQSPESLLQLKALKPGVIQILGVKTSRFLCQRPDGALYGSLHFDPEACSFRELLLEDGYNVYQSEAHGLPLHLPGNKSPHRDPAPRGPARFLPLPGLPPAPPEPPGILAPQPPDVGSSDPL', 20);
